Form field: inhibition (one value per entry).
Test system: hERG (Potassium voltage-gated channel subfamily H member 2, Homo sapiens)
Assay: Displacement of [35S]MK-0499 from human hERG potassium channel at 10 uM

{"Compound": "CC(C)(C)OC(=O)N[C@H](Cc1cc(C(F)(F)F)ccc1C(F)(F)F)C(=O)N[C@@H]1CN(CC2CC2)c2ccccc2N(CC(F)(F)F)C1=O", "inhibition / %": 6}
{"Compound": "CC(C)N1C(=O)[C@H](NC(=O)[C@@H](Cc2c(F)cccc2F)NC(=O)OC(C)(C)C)CN(CC2CC2)c2ccccc21", "inhibition / %": 25}
{"Compound": "CC(C)N1C(=O)[C@H](NC(=O)[C@@H](Cc2ccccc2F)NC(=O)OC(C)(C)C)CN(CC2CC2)c2ccccc21 (stereo in doubt; 22)", "inhibition / %": 32}
{"Compound": "CC(C)(C)OC(=O)N[C@H](Cc1ccccc1F)C(=O)N[C@@H]1CN(CC2CC2)c2ccccc2N(CC(F)(F)F)C1=O", "inhibition / %": 20}
{"Compound": "CN1C(=O)[C@H](NC(=O)[C@@H](Cc2ccccc2F)NC(=O)OC(C)(C)C)CN(CC2CCCCC2)c2ccccc21", "inhibition / %": 43}
{"Compound": "CC(C)N1C(=O)[C@H](NC(=O)[C@@H](Cc2ccccc2)NC(=O)OC(C)(C)C)CN(CC2CC2)c2ccccc21", "inhibition / %": 42}
{"Compound": "CN1C(=O)[C@H](NC(=O)[C@@H](Cc2ccccc2F)NC(=O)OC(C)(C)C)CN(CC2CCC2)c2ccccc21", "inhibition / %": 65}

* * *

Molecular target: Sodium channel protein type 9 subunit alpha (Homo sapiens)
Assay: Inhibition of human Nav1.7 sodium channel expressed in HEK293 cells at a membrane potential of -70 mV by whole cell voltage clamp technique
pKi: −log10 of the molar value.
Parameter Measured: pKi

{"Smiles Repr": "CC(C)(C)OC(=O)N[C@H](Cc1ccccc1)C(=O)N[C@@H]1CN(CC2CC2)c2ccccc2N(CC(F)(F)F)C1=O", "Reported Value": 9.20}

* * *

# inhibition annotations
Test system: hERG (Potassium voltage-gated channel subfamily H member 2, Homo sapiens)
Assay: Displacement of [35S]MK-0499 from human hERG potassium channel at 10 uM
Parameter Measured: inhibition (%)

{"Compound": "CN1C(=O)[C@H](NC(=O)[C@@H](Cc2ccccc2F)NC(=O)OC(C)(C)C)CNc2ccccc21", "Reported Value": 25}
{"Compound": "CC(C)(C)OC(=O)N[C@H](Cc1cccc(F)c1)C(=O)N[C@@H]1CN(CC2CC2)c2ccccc2N(CC(F)(F)F)C1=O", "Reported Value": 17}
{"Compound": "CC(C)N1C(=O)[C@H](NC(=O)[C@@H](Cc2ccccc2OC(F)(F)F)NC(=O)OC(C)(C)C)CN(CC2CC2)c2ccccc21", "Reported Value": 35}
{"Compound": "CN1C[C@@H](NC(=O)[C@@H](Cc2ccccc2F)NC(=O)OC(C)(C)C)C(=O)N(C)c2ccccc21", "Reported Value": 7}
{"Compound": "CN1C(=O)[C@H](NC(=O)[C@@H](Cc2ccccc2F)NC(=O)OC(C)(C)C)CN(Cc2ccccc2)c2ccccc21", "Reported Value": 84}
{"Compound": "CN1C(=O)[C@H](NC(=O)[C@@H](Cc2ccccc2F)NC(=O)OC(C)(C)C)CN(CC(F)(F)F)c2ccccc21", "Reported Value": 62}
{"Compound": "CC(C)N1C(=O)[C@H](NC(=O)[C@@H](Cc2ccccc2F)NC(=O)OC(C)(C)C)CN(CC2CC2)c2ccccc21 (stereo in doubt; 14)", "Reported Value": 33}
{"Compound": "CC(C)(C)OC(=O)N[C@H](Cc1ccccc1C(F)(F)F)C(=O)N[C@@H]1CN(CC2CC2)c2ccccc2N(CC(F)(F)F)C1=O", "Reported Value": 11}
{"Compound": "CC(C)N1C(=O)[C@H](NC(=O)[C@@H](Cc2cccc(F)c2)NC(=O)OC(C)(C)C)CN(CC2CC2)c2ccccc21", "Reported Value": 17}

* * *

Target: Sodium channel protein type 9 subunit alpha (Homo sapiens, UniProt Q15858)
Sequence (Q15858 whole entry): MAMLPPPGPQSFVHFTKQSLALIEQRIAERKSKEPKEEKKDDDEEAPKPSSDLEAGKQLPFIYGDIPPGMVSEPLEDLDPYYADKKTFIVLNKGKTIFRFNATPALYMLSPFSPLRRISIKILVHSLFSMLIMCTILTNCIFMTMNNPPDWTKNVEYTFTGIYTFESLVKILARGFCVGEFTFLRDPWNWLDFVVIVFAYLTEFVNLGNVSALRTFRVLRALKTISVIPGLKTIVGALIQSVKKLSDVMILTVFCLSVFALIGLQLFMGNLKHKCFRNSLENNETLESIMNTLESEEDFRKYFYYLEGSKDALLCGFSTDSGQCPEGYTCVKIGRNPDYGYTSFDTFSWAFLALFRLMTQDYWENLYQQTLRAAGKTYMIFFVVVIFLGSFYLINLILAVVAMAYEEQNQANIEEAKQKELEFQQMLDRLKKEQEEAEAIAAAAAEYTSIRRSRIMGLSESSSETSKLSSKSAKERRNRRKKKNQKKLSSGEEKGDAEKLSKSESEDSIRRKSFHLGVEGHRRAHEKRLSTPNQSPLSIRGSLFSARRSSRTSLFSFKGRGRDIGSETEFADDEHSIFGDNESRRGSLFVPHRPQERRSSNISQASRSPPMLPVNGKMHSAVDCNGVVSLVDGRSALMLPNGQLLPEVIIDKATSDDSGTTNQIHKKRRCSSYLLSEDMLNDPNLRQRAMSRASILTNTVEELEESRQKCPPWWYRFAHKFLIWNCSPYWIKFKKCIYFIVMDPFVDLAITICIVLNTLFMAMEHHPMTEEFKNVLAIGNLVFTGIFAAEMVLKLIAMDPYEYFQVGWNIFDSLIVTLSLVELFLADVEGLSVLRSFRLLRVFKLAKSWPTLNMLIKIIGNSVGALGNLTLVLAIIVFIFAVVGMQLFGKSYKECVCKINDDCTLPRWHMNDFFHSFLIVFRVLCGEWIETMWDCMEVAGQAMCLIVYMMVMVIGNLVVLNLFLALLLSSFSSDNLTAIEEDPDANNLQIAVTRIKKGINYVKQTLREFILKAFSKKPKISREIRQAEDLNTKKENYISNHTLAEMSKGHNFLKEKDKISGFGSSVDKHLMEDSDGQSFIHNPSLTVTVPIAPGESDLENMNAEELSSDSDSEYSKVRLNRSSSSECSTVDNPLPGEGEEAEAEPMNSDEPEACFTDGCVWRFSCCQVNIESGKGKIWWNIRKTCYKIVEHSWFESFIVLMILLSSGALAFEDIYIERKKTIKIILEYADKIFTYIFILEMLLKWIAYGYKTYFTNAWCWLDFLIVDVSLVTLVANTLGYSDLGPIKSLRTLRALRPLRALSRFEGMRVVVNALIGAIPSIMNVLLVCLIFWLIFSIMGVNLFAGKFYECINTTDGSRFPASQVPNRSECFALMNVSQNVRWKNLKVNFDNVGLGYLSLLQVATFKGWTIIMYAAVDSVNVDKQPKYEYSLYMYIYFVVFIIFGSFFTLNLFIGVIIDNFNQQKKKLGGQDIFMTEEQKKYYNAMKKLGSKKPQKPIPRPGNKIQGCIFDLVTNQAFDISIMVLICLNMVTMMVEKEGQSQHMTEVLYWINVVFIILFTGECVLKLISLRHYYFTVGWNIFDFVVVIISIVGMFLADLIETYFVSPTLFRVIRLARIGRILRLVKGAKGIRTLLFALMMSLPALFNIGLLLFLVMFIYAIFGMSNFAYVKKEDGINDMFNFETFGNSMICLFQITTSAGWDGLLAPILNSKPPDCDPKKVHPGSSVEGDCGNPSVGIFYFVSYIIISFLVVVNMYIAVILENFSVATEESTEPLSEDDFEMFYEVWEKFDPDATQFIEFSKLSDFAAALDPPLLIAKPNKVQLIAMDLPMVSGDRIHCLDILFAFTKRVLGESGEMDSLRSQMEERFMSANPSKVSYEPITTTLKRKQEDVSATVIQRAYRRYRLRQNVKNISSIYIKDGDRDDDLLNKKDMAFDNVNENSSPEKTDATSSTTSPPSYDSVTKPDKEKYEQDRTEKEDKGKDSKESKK
Assay: Inhibition of human Nav1.7 sodium channel expressed in HEK293 cells by FRET assay
Type: cell-based
pIC50: −log10 of the molar value.
Listing of recorded pIC50 by entry.
Parameter Measured: pIC50

{"Smiles Repr": "CN1C(=O)[C@H](NC(=O)[C@@H](Cc2ccccc2F)NC(=O)OC(C)(C)C)CN(CC(F)(F)F)c2ccccc21", "Reported Value": 7.33}
{"Smiles Repr": "CN1C[C@@H](NC(=O)[C@@H](Cc2ccccc2F)NC(=O)OC(C)(C)C)C(=O)N(C)c2ccccc21", "Reported Value": 6.85}
{"Smiles Repr": "CC(C)N1C(=O)[C@H](NC(=O)[C@@H](Cc2ccccc2OC(F)(F)F)NC(=O)OC(C)(C)C)CN(CC2CC2)c2ccccc21", "Reported Value": 7.12}
{"Smiles Repr": "CN1C(=O)[C@H](NC(=O)[C@@H](Cc2ccccc2F)NC(=O)OC(C)(C)C)CN(CC2CCC2)c2ccccc21", "Reported Value": 7.09}
{"Smiles Repr": "CC(C)(C)OC(=O)N[C@H](Cc1cccc(F)c1)C(=O)N[C@@H]1CN(CC2CC2)c2ccccc2N(CC(F)(F)F)C1=O", "Reported Value": 6.85}
{"Smiles Repr": "CN1C(=O)[C@H](NC(=O)[C@@H](Cc2ccccc2F)NC(=O)OC(C)(C)C)CN(CC2CC2)c2ccccc21", "Reported Value": 7.31}
{"Smiles Repr": "CC(C)N1C(=O)[C@H](NC(=O)[C@@H](Cc2ccccc2)NC(=O)OC(C)(C)C)CN(CC2CC2)c2ccccc21", "Reported Value": 7.28}
{"Smiles Repr": "CC(C)N1C(=O)[C@H](NC(=O)[C@@H](Cc2cccc(F)c2)NC(=O)OC(C)(C)C)CN(CC2CC2)c2ccccc21", "Reported Value": 7.02}
{"Smiles Repr": "CC(C)(C)OC(=O)N[C@H](Cc1ccccc1F)C(=O)N[C@@H]1CN(CC2CC2)c2ccccc2N(CC(F)(F)F)C1=O", "Reported Value": 7.00}
{"Smiles Repr": "CC(C)(C)OC(=O)N[C@H](Cc1ccc(F)cc1)C(=O)N[C@@H]1CN(CC2CC2)c2ccccc2N(CC(F)(F)F)C1=O", "Reported Value": 6.66}
{"Smiles Repr": "CC(C)(C)OC(=O)N[C@H](Cc1ccccc1)C(=O)N[C@@H]1CN(CC2CC2)c2ccccc2N(CC(F)(F)F)C1=O", "Reported Value": 7.52}
{"Smiles Repr": "CC(C)(C)OC(=O)N[C@H](Cc1cc(C(F)(F)F)ccc1C(F)(F)F)C(=O)N[C@@H]1CN(CC2CC2)c2ccccc2N(CC(F)(F)F)C1=O", "Reported Value": 6.92}
{"Smiles Repr": "CC(C)(C)OC(=O)N[C@H](Cc1ccccc1OC(F)(F)F)C(=O)N[C@@H]1CN(CC2CC2)c2ccccc2N(CC(F)(F)F)C1=O", "Reported Value": 7.14}
{"Smiles Repr": "CN1C(=O)[C@H](NC(=O)[C@@H](Cc2ccccc2F)NC(=O)OC(C)(C)C)CN(CC2CCCCC2)c2ccccc21", "Reported Value": 6.73}

* * *

Test: Clearance in Sprague-Dawley rat at 1.0 mg/kg, iv
Type: ADME, organism-based
Design: dose 1 mg/kg, route intravenous
Details: in vivo

{"Smiles Repr": "CC(C)N1C(=O)[C@H](NC(=O)[C@@H](Cc2ccccc2C(F)(F)F)NC(=O)OC(C)(C)C)CN(CC2CC2)c2ccccc21", "clearance": "1.38 L/h/kg"}
{"Smiles Repr": "CC(C)(C)OC(=O)N[C@H](Cc1ccccc1)C(=O)N[C@@H]1CN(CC2CC2)c2ccccc2N(CC(F)(F)F)C1=O", "clearance": "2.88 L/h/kg"}
{"Smiles Repr": "CC(C)(C)OC(=O)N[C@H](Cc1ccccc1C(F)(F)F)C(=O)N[C@@H]1CN(CC2CC2)c2ccccc2N(CC(F)(F)F)C1=O", "clearance": "3.06 L/h/kg"}
{"Smiles Repr": "CC(C)N1C(=O)[C@H](NC(=O)[C@@H](Cc2ccccc2OC(F)(F)F)NC(=O)OC(C)(C)C)CN(CC2CC2)c2ccccc21", "clearance": "1.8 L/h/kg"}

* * *

Test system: hERG (Potassium voltage-gated channel subfamily H member 2, Homo sapiens)
Test: Displacement of [35S]MK-0499 from human hERG potassium channel at 1 uM
Measured inhibition accompanies every entry in the list below.

{"Compound": "CN1C[C@@H](NC(=O)[C@@H](Cc2ccccc2F)NC(=O)OC(C)(C)C)C(=O)N(C)c2ccccc21", "inhibition [%]": 0}
{"Compound": "CN1C(=O)[C@H](NC(=O)[C@@H](Cc2ccccc2F)NC(=O)OC(C)(C)C)CN(CC(F)(F)F)c2ccccc21", "inhibition [%]": 36}
{"Compound": "CC(C)N1C(=O)[C@H](NC(=O)[C@@H](Cc2ccccc2F)NC(=O)OC(C)(C)C)CN(CC2CC2)c2ccccc21 (stereo in doubt; 14)", "inhibition [%]": 7}
{"Compound": "CN1C(=O)[C@H](NC(=O)[C@@H](Cc2ccccc2F)NC(=O)OC(C)(C)C)CN(CC2CCCCC2)c2ccccc21", "inhibition [%]": 17}
